System: VEGF-stimulated ADSC/ECFC co-culture, nuclear area imaging
Experiment: nuclear area loss in endothelial-stromal co-culture, dose response, cell-based, VEGF stimulation, IC50 (AID 1117324)
The source made the active and inactive calls. No rule for the calls is given here.
Answer with one of the outcomes given here: T for active, F for inactive

Answered cases to consult:
(Q) Entry CN1CCC[C@@H]1CCO[C@](C)(c1ccccc1)c1ccc(Cl)cc1 : call = ?
(A) F

(Q) Entry CC(=O)O[C@H]1C[C@H](O[C@H]2[C@@H](O)C[C@H](O[C@@H]3[C@@H](O)C[C@H](O[C@H]4CC[C@@]5(C)[C@H](CC[C@@H]6[C@H]5C[C@@H](O)[C@]5(C)[C@@H](C7=CC(=O)OC7)CC[C@]65O)C4)O[C@@H]3C)O[C@@H]2C)O[C@H](C)[C@H]1O[C@@H]1O[C@H](CO)[C@@H](O)[C@H](O)[C@@H]1O : call = ?
(A) T

(Q) Entry COc1cccc2c1C(=O)c1c(O)c3c(c(O)c1C2=O)C[C@@](O)(C(=O)CO)C[C@@H]3O[C@H]1C[C@H](N)[C@H](O)[C@H](C)O1 : call = ?
(A) T

(Q) Entry CC(=O)NC(=O)c1ccccc1O : call = ?
(A) F

(Q) Entry Cc1cc(OI)c(C(C)C)cc1-c1cc(C(C)C)c(OI)cc1C : call = ?
(A) F

(Q) Entry CNC(=O)Oc1cccc2ccccc12 : call = ?
(A) F

(Q) Entry O=C(CCCN1CCC(O)(c2cccc(C(F)(F)F)c2)CC1)c1ccc(F)cc1 : call = ?
(A) F

(Q) Entry Cc1nc2ccccc2n1Cc1ccc(Cl)cc1 : call = ?
(A) F

New cases:
(Q) Entry Cc1cccc(Nc2cc(Cl)nc(SCC(=O)O)n2)c1C : call = ?
(A) F

Data credit: PubChem BioAssay AID1117324
